A collection of molecules and their measured pIC50
Target: FGFR kinase domain (Homo sapiens, UniProt P11362, C488A/C584S)
Construct: FGFR kinase domain (amino acids 458-765, C488A, C584S) N-terminally fused to a His6-tag; made in house
Sequence (P11362 458-765 C488A/C584S): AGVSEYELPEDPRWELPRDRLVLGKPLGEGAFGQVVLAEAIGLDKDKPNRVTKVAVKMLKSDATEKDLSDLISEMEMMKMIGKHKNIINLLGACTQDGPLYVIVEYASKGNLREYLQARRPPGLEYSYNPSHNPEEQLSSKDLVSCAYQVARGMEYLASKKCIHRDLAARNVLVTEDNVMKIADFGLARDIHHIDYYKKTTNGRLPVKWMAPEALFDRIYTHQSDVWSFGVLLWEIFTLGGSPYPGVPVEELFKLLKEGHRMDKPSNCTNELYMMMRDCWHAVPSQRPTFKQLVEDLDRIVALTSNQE
Assay: Kinase assay (ELISA) for inhibition of FGFR activity
Format: biochemical
Conditions: FGFR inhibition tests, ELISA kinase assay; read-out: Activity class
pIC50: −log10 of the molar value.

What the record says about `Cc1cc(Nc2cc(OC(C)C)[nH]n2)nc(NCc2cc(C3CC3)no2)n1` : pIC50 is > 7.00

Input `Cc1cc(Nc2ccnc(NCc3cc(C4CC4)no3)n2)n[nH]1` . Output pIC50: > 7.00

Lab book: pIC50 of `CCCc1cc(Nc2ccnc(NCc3cc(C)no3)n2)n[nH]1` noted as > 7.00

***
pIC50 reading for `NC(=O)c1cc(CNc2nccc(Nc3cc(C4CC4)n[nH]3)n2)on1` : > 7.00

GET /value?item= `Cc1cc(CNc2nc(C)cc(Nc3cc(OC(C)C)[nH]n3)n2)on1` &field=pIC50 returns > 7.00

Summary for this molecule, `COc1ccc(CCc2cc(Nc3ccnc(NCc4cc(C5CC5)no4)n3)n[nH]2)cc1` : pIC50 is 6.00 to 7.00

Lookup result for `Cc1cc(CNc2nccc(Nc3cc(OC(C)C)[nH]n3)n2)on1` ; measured pIC50: > 7.00

pIC50 reading for `COc1cccc(CCc2cc(Nc3ccnc(NCc4cc(C)no4)n3)n[nH]2)c1` : > 7.00

Data point: `Cc1cc(CNc2nccc(Nc3cc(OCc4ccccc4)[nH]n3)n2)on1` ; pIC50 = 6.00 to 7.00

###

pIC50: −log10 of the molar value.
Consider compounds characterized by their pIC50 with human cytochrome P450 (CYP) 2C19 (Homo sapiens, UniProt P33261).

Entry under test: `CCCc1cc(Nc2nc(NCc3cc(C)no3)ncc2Br)n[nH]1` . Its pIC50 was 5.54

Next:
Form field pIC50, entry `Cc1cc(CNc2ncc(Cl)c(Nc3cc(C)[nH]n3)n2)on1` : < 5.00

Recorded pIC50 (compound `Cc1cc(Nc2nc(NCc3cc(C)no3)ncc2Br)[nH]n1` ): < 5.00

Given item COc1ccc2[nH]c([S+]([O-])Cc3ncc(C)c(OC)c3C)nc2c1 (stereo not shown) , the value recorded as its pIC50 is 5.34 to 5.82

###

Molecular target: FGFR1 kinase (Homo sapiens, UniProt P11362)
Sequence (P11362 22-822): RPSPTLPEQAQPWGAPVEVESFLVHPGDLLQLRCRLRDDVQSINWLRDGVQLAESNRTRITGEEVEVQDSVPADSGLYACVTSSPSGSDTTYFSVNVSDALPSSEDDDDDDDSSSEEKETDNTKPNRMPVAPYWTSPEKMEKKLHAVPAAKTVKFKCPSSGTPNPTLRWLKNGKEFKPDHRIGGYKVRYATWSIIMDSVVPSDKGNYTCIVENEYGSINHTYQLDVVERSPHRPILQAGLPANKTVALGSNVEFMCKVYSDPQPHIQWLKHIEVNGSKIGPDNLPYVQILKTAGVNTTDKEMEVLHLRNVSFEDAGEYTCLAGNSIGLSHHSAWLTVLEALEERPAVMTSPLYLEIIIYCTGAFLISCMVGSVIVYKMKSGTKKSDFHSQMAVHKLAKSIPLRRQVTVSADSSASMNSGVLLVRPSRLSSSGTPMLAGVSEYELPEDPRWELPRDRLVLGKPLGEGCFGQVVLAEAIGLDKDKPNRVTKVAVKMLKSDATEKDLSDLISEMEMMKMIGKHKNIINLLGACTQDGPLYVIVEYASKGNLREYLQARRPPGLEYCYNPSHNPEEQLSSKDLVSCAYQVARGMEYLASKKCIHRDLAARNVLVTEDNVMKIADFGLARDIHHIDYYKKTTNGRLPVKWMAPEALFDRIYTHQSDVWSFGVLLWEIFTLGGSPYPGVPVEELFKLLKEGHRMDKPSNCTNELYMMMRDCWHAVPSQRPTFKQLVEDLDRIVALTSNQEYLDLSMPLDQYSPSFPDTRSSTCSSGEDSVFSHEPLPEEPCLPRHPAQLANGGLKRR
Assay: Kinase assay (using Caliper technology)
Type: biochemical
pIC50: −log10 of the molar value.
measurement-type: pIC50

What the record says about `COc1cc(CCc2cc(Nc3ccnc(NCc4cc(C)no4)n3)n[nH]2)cc(OC)c1` : pIC50 is > 6.70

###

Biological target: FGFR1 IIIc (Homo sapiens, UniProt P11362)
Construct: host or cells: Cos-1
Sequence (P11362 22-822): as above
Test: Cell based inhibition of transiently expressed FGFR1 IIIc phosphorylation (Cos-1 cells)
Conditions: Cos-1 cells, phospho-FGFR1; upper bound of bin; read-out: IC50
pIC50: −log10 of the molar value. Where a name gives a salt, the structure may show the parent alone.
measurement-type: pIC50

# pIC50 (compound: `COc1cccc(CCc2cc(Nc3ccnc(NCc4cc(CO)no4)n3)[nH]n2)c1` ) is > 6.00

More entries:
# pIC50 (compound: `c1coc(-c2cc(Nc3ccnc(NCc4cc(C5CC5)no4)n3)n[nH]2)c1` ) is > 6.00

Documented pIC50 of `COc1cccc(CCc2cc(Nc3ccnc(NCc4cc(C5CC5)no4)n3)n[nH]2)c1` : > 6.70

What the record says about Cc1cc(CNc2nccc(Nc3cc(CCc4cccc(Br)c4)[nH]n3)n2)on1 [Example 53, hydrochloride] : pIC50 is > 6.00
